Reported percent binding compared to human Ang-2 values are given for each entry in this list.
# target.system: human Ang-2 H375Q (human) (UniProt O15123)
# Sequence (O15123 19-496, stated change not applied): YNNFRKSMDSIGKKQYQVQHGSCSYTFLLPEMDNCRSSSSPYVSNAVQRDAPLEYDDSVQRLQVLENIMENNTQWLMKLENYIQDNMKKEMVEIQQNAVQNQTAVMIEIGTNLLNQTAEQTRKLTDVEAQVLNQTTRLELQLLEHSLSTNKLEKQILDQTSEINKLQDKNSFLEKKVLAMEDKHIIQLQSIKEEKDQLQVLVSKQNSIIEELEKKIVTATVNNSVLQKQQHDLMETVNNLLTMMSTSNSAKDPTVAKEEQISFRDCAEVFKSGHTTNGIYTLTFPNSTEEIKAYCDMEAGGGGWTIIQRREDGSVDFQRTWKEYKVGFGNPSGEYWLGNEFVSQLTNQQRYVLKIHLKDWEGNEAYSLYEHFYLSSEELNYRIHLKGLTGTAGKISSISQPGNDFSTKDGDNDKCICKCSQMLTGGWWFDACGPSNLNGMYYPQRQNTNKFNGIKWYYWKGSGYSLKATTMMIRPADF
# assay.name: ELISA
quantity: percent binding compared to human Ang-2 (%)

mAb 5.88.3 (antibody, V domains shown) VH: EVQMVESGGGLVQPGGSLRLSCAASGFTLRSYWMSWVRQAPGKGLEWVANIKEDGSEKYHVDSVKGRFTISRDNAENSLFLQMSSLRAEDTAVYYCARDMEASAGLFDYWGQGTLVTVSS VL: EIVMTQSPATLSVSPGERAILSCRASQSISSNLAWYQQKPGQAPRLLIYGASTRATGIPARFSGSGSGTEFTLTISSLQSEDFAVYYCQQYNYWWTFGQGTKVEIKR; 100
mAb 5.2.1 (antibody, part only; not given: light chain, V domains shown, part only) VH: QVQLVESGGGVVQPGRSLRLSCAASGFTFSSYGMHWVRQAPGKGLEWVAVIWFDGFNKYYADSVKGRFTISRDNSKNTLYLQMNSLRAEDTAVYHCARDRGYSGYDHYYGMDVWGQGTTVTVSSA; 100
mAb 5.62.1 (antibody, V domains shown) VH: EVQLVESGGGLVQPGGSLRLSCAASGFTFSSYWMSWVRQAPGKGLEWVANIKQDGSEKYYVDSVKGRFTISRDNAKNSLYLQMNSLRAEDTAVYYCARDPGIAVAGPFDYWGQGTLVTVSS VL: EIVMTQSPATLSVSPGERATLSCRASQSVSSNLAWYQQKPGQAPRLLIYGAFTRATGIPARFSGSGSGTEFTLTISSLQSEDFAVYYCQQYNHWWTFGQGTKVGIKR; 100

// data source = patent US20060246071A1
